Origin of measurements: PubChem BioAssay

biological target: Concanavalin-A (Canavalia ensiformis) (UniProt P02866); assay: ConA small-molecule binders, primary screen, artefact control for SMM control protein annotation, biochemical, small-molecule microarray, Alexa647 label, 635 nm (AID 1127); details: ConA-A647 binding fluorescence, higher = more signal;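 note: z combines 667 nm emission intensity with signal-to-noise across three replicate slides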
Sequence (P02866 whole entry, looked up): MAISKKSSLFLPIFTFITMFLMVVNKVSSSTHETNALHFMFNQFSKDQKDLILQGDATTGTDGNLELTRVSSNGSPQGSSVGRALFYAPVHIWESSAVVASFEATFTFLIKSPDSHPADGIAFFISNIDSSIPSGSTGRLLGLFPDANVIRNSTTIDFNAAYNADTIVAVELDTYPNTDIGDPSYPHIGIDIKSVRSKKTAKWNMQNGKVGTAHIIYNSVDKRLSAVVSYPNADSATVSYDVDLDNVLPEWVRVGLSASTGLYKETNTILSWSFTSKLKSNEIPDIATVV
A collection of molecules and their measured composite z-score
Please reply with the number alone, leaving off any unit.

[N-]=[N+]=NCc1ccccc1[C@H]1OC(c2ccc(OCCCO)cc2)=N[C@@]1(Cc1ccccc1N=[N+]=[N-])C(=O)NCc1ccccc1 = 1.12
COc1ccc([Si](C)(C)[C@@H]2[C@@H](CCO)O[C@]3(C(=O)N(Cc4ccc(NC(=O)[C@H](C)O)cc4)c4ccccc43)[C@H]2C)cc1 = 1.08
O=C1OCCC=C[C@H]2OC34C=CCN(Cc5ccccc5)C(=O)[C@H]3N(CCO)C(=O)[C@@H]4C12 (stereo partly drawn) = -1.18
CO[C@H]1O[C@H](CO)[C@@H](OC(=O)CCc2ccccc2)[C@@H]2OC(=O)[C@H](Cc3cccc(Br)c3)C/C=C/C[C@@H](Cc3cccc(Br)c3)C(=O)O[C@@H]12 = 0.014
C[C@H]1NC(=O)[C@@H](C)NC(=O)[C@@]23C(=O)N[C@@H](Cc4ccccc4)C2[C@H](C)[C@@]2(C)O[C@H]2C3/C=C/C/C=C\CNC1=O (stereo partly drawn) = -0.888
COC(=O)C(CC#Cc1ccc2c(c1)[C@]1(C(=O)N2)[C@H](C(=O)N2CCCCCCC2)[C@H]2C(=O)O[C@H](c3ccccc3)[C@H](c3ccccc3)N2[C@@H]1c1ccc(O)cc1)C(=O)OC = 0.266
CCN1C(C)=C(C(=O)OC)[C@@H](c2ccccc2)N2C(=O)[C@](O)(C(=O)OC)[C@@H](c3ccccc3)C(C(C)=O)=C12 = -1.15
CCC(=O)[C@]12O[C@@]3([C@@H]4C(=O)OCC[C@@H]41)N(Cc1ccccc1)C(C)=C(C(=O)OC)[C@@H](c1ccccc1)N3C2=O = -1.17

Kindly consider the entry below.
composite z-score lookup needed for C=CCOC(=O)[C@@H]1[C@H]2C(=O)O[C@H](c3ccccc3)[C@H](c3ccccc3)N2[C@H](c2ccc(OCCOC(=O)[C@H]3C[C@H]4C(=O)N5CCC[C@H]5C(=O)N4[C@H]3c3ccc(O)cc3)cc2)[C@@]12C(=O)Nc1ccccc12 , thanks.
1.19

* * *

The following compounds are listed with their measured composite z-score values.
test: small-molecule microarray binders of probe aLefty2, primary screen, biochemical, biotinylated probe, 635/667 nm fluorescence (AID 1094); conditions: higher = more signal;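 note: score merges spot fluorescence near 667 nm with spot signal-to-noise ratio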
Form field (numeric): enter value without unit.

Please review the following examples before continuing.
CCN1C(C)=C(C(=O)OC)[C@@H](c2ccccc2)N2C(=O)[C@@]3(C(=O)OC)O[C@@]12[C@@H]1C(=O)CCC[C@@H]13 = -0.243
CCOC(=O)C1=CC[C@@H](c2ccccc2)N(S(=O)(=O)c2ccc(C)cc2)[C@H]1C = 0.0018

# context switch: different compound, same composite z-score
# get_value(readout='composite z-score', item= CO[C@H]1O[C@H](CO)[C@@H](OC(=O)CCc2ccccc2)[C@@H]2OC(=O)[C@H](Cc3cccc(Br)c3)C/C=C/C[C@@H](Cc3cccc(Br)c3)C(=O)O[C@@H]12 )
-0.134

* * *

experiment: small-molecule binders of probe aInhba, primary screen, biochemical, small-molecule microarray, 635/667 nm fluorescence (AID 1148); details: higher = more signal;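 note: score merges 667nm spot fluorescence with signal-to-noise for antibody binding to printed compounds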
The following ranges of composite z-score define the classes used here: low: < -0.08; medium: ≥ -0.08 and < 0.04; high: ≥ 0.04

Which of the defined bands does the recorded composite z-score of C=CC[C@]1(C(=O)OC)N=C(c2ccc(OCCCO)cc2)O[C@H]1c1ccccc1CN=[N+]=[N-] sit within?
medium
